- target-or-test-system: T1, RBD (BA.1) (SARS-CoV-2 Omicron BA.1, strain)
- T1 construct: source: bought: Sino Biological
- test-method-notes: SPR
- condition-context: both partners purified
Field: pKd. Provide a value for each of the binders that follow.
The meaning of pKd here: minus log10 of the concentration in molar units.

# input binder: TH272 (antibody, V domains shown, IgG1 (D2:p3)) VH: QITLKESGPTLVKPTQTLTLTCTFSGFSLSTGGVSVGWIRQPPGKALEWLALIYWDDDKRYSPSLESRLTITKDTSKNLVVLTLTNMDPVDTATYYCAHKTIPTIFDYWGQGTLVTVSS VL: QSALTQPASVSGSPGQSITISCTATSSDVGAYQYVSWYQQYPGKAPKLMIYEVSKRPSGVSNRFSGSKSGNTASLTISGLQAEDDAYYYCNSYTTSSVVFGGGTKLTVL ; wanted: its pKd
9.53

Which pKd value belongs to TH236 (antibody, V domains shown, IgG1 (D2:p3)) VH: QVQLVESGGGLVKPGGSLRLSCAASGFMISDSYMNWIRQPPGKGLEWVSYISSNGYAIYYGDSVKGRFTISRDNAKNFLYLQMNSLRVEDTAVYYCAREQPGGYYDSSGYRLDPWGQGILVTVSS VL: QSALTQPASVSGSPGQSITISCTGTSSDVGGYNYVSWYQQHPGKAPKLMIYDVSNRPSGVSNRFSGSKSGNTASLTISGLQAEDEADYYCSSYTSSSTLYVFGTGTKVTVL ?
9.52

Which pKd value is on record for TH027 (antibody, V domains shown, IgG1 (D2:p3)) VH: QITLKESGLTLVRPTQTLTLTCTFSGFSLINSGVGVGWIRQPPGKALEWLALIYWDDDKRYNPSLRSRLTISKATSKNQVVLTMTNMDPVDTATYYCTHRGPGHNTPIYFEFWGQGALVTVSS VL: QSVLTQSPSASGTPGQRVTISCSGSRSNIGSNFVYWFHQLPGTAPKLLIHSNDQRPSGVPDRFSGSNSGTSASLAISGLRSEDEADYYCAAWDDSLSSWVFGGGTKLTVL ?
9.08

Query (binder): TH003 (antibody, V domains shown, IgG1 (D2:p3)) VH: EVRLLESGGGLVQPGGSLRLSCAASGFTFNDYAMSWVRQAPGEGLEWVSTISYSGGSTYYADSVKGRFTISRDNSKNMLYLQMNSLRAEDTALYYCANGVATADWYFDLWGRGTLVTVSS VL: QSALTQPRSVSGSPGQSVTISCTGTSSDVGGYNYVSWFQHHPGKAPKLMIYDVTDRPSGVPDRFSGSKSGNTASLTISGLQAEDAADYYCCSYAGTYTVFGGGTKLTVL ; field requested: pKd
8.89
